Data provenance: PubChem BioAssay AID1745844

system: rodent lifetime carcinogenesis bioassay, tumor incidence TD50; assay: carcinogenic potency in animals, long-term in vivo studies, CPDB compilation (AID 1745844); settings: mouse; strain Swiss; males; in drinking water; site: all sites; lesion: lymphoma; dosed 50 weeks; study length 51 weeks
RESULT TYPE: TD50

SMILES: NC(=O)N(CCO)N=O
RESULT TYPE: TD50
MEASURED: 1.27 mg/kg/day

---

tested on: rodent lifetime carcinogenesis bioassay, tumor incidence TD50; experiment: carcinogenic potency in animals, long-term in vivo studies, CPDB compilation (AID 1745844); settings: rat; strain Fischer 344; males; by gavage; site: skin; lesion: squamous-cell papilloma; dosed 103 weeks; study length 104 weeks

COMPOUND: C=CC1CC=CCC1 (stereo unspecified)
EXPERIMENTAL TARGET: rodent lifetime carcinogenesis bioassay, tumor incidence TD50
TD50 (mg/kg/day): 935

---

tested on: rodent lifetime carcinogenesis bioassay, tumor incidence TD50; assay: carcinogenic potency in animals, long-term in vivo studies, CPDB compilation (AID 1745844); conditions: rat; strain Fischer 344; males; in drinking water; site: multiple organs; lesion: mesothelioma, malignant; dosed 58 weeks; study length 60 weeks

SMILES: Cc1cc(-c2ccc(N)c(C)c2)ccc1N
TD50: 9.45 mg/kg/day

---

test system: rodent lifetime carcinogenesis bioassay, tumor incidence TD50; assay: carcinogenic potency in animals, long-term in vivo studies, CPDB compilation (AID 1745844); conditions: rat; strain Fischer 344; females; in drinking water; site: all sites; lesion: mononuclear-cell leukemia; dosed 60 weeks; study length 60 weeks
RESULT TYPE: TD50 (mg/kg/day)

SMILES: Cc1cc(-c2ccc(N)c(C)c2)ccc1N
MEASURED: 6.46

---

system: rodent lifetime carcinogenesis bioassay, tumor incidence TD50; test: carcinogenic potency in animals, long-term in vivo studies, CPDB compilation (AID 1745844); details: hamster; strain Syrian Golden; females; by gavage; site: forestomach; lesion: several types; types named in the paper; dosed 59 weeks; study length 83 weeks

MOLECULE: CC1CN(N=O)CC(C)O1 (stereo unspecified)
EXPERIMENTAL TARGET: rodent lifetime carcinogenesis bioassay, tumor incidence TD50
UNITS: mg/kg/day
TD50: 9.45

---

test system: rodent lifetime carcinogenesis bioassay, tumor incidence TD50; test: carcinogenic potency in animals, long-term in vivo studies, CPDB compilation (AID 1745844); details: rat; strain Fischer 344; females; in drinking water; site: clitoral gland; lesion: adenoma + adenoma, bilateral + carcinoma + carcinoma, bilateral; dosed 60 weeks; study length 60 weeks

SMILES: Cc1cc(-c2ccc(N)c(C)c2)ccc1N
TD50: 0.847 mg/kg/day

---

system: rodent lifetime carcinogenesis bioassay, tumor incidence TD50; assay: carcinogenic potency in animals, long-term in vivo studies, CPDB compilation (AID 1745844); settings: mouse; strain B6C3F1; males; inhaled; site: liver; lesion: hepatocellular adenoma; dosed 102 weeks; study length 104 weeks

SMILES: ClCCl
TD50: 3480 mg/kg/day

---

tested on: rodent lifetime carcinogenesis bioassay, tumor incidence TD50; test: carcinogenic potency in animals, long-term in vivo studies, CPDB compilation (AID 1745844); conditions: mouse; strain C57BL/6; males; in feed; site: any site (literature study); lesion: several types; types named in the paper; dosed 52 weeks; study length 69 weeks
Active and inactive are the calls of the source. The rule behind the calls is not given here.
Quick reference: TD50 of the listed items.

SMILES: CCCCNC(N)=O
EXPERIMENTAL TARGET: rodent lifetime carcinogenesis bioassay, tumor incidence TD50
TD50: 699 mg/kg/day (inactive)
--
SMILES: O=NO
EXPERIMENTAL TARGET: rodent lifetime carcinogenesis bioassay, tumor incidence TD50
TD50: 1210 mg/kg/day (inactive)
